METHOD NOTES: Solvent solubility screen of Compound A (aliquot addition, HPLC of saturated solutions)
Assay type: physicochemical
MEASUREMENT CONTEXT: 2-Methyl THF, 40 °C, organic solvent or mixture, thermodynamic from solid, 2-Methyl THF; read-out: Approximate Solubility
ENDPOINT: solubility (µg/mL)
Kindly provide the numeric value in µg/mL only, without the unit symbol.

Data point: `COc1cc(O[C@H]2C(C)(C)[C@H](NC(=O)c3ccc(N4CCC(CN5CCN(c6ccc(C(=O)N[C@H]7CCC(=O)NC7=O)c(F)c6)CC5)CC4)cc3)C2(C)C)ccc1C#N` ; solubility = 2890

###

METHOD NOTES: Solvent solubility screen of Compound A (aliquot addition, HPLC of saturated solutions)
Format: physicochemical
MEASUREMENT CONTEXT: THF:water (98:2% v/v), organic solvent or mixture, thermodynamic from solid, THF:water (98:2% v/v); read-out: solubility
ENDPOINT: solubility

Please fill in: solubility reported for `COc1cc(O[C@H]2C(C)(C)[C@H](NC(=O)c3ccc(N4CCC(CN5CCN(c6ccc(C(=O)N[C@H]7CCC(=O)NC7=O)c(F)c6)CC5)CC4)cc3)C2(C)C)ccc1C#N` = 50 to 100 mg/mL
